System: expert panel members
assayExplanation: Sucrose Equivalent Value (SEV) of pH 3.2 buffered sucrose solution, taste panel
Type: in vivo
condition: 500 ppm of one potentiator in pH 3.2 buffered 5% sucrose solution
Would you mind telling me the reported SEV (%) of each entry?
Numbers only, in %.

The examples below pair each entry with its known result.
>  <compound>
O=C(O)c1ccc(O)cc1O [2,4-DHB, 2,4-dihydroxybenzoic acid]

>  <recordedMetric>
SEV (%)

>  <units>
%

>  <assayResult>
6.5

$$$$
>  <compound>
O=C(O)c1ccc(O)c(O)c1 [3,4-dihydroxybenzoic acid (3,4-DHB), 3,4-dihydroxybenzoic acid]

>  <recordedMetric>
SEV (%)

>  <units>
%

>  <assayResult>
6.4

$$$$
>  <compound>
O=C(O)c1ccc(O)c(O)c1O [2,3,4-trihydroxybenzoic acid (2,3,4-THB), 2,3,4-trihydroxybenzoic acid]

>  <recordedMetric>
SEV (%)

>  <units>
%

>  <assayResult>
5.4

$$$$
>  <compound>
O=C(O)c1cc(O)ccc1O [2,5-dihydroxybenzoic acid (2,5-DHB), 2,5-dihydroxybenzoic acid]

>  <recordedMetric>
SEV (%)

>  <units>
%

>  <assayResult>
5.3

$$$$
>  <compound>
O=C(O)c1cccc(O)c1 [Example 3-HB, 3-hydroxybenzoic acid]

>  <recordedMetric>
SEV (%)

>  <units>
%

>  <assayResult>
6.9

$$$$
>  <compound>
O=C(O)c1cc(O)cc(O)c1 [3,5-dihydroxybenzoic acid (3,5-DHB), 3,5-dihydroxybenzoic acid]

>  <recordedMetric>
SEV (%)

>  <units>
%

>  <assayResult>
5.3

$$$$
>  <compound>
O=C(O)c1c(O)cc(O)cc1O [2,4,6-trihydroxybenzoic acid (2,4,6-THB), 2,4,6-trihydroxybenzoic acid]

>  <recordedMetric>
SEV (%)

>  <units>
%

>  <assayResult>
5.4

$$$$
>  <compound>
O=C(O)c1c(O)cccc1O [2,6-dihydroxybenzoic acid (2,6-DHB), 2,6-dihydroxybenzoic acid]

>  <recordedMetric>
SEV (%)

>  <units>
%

>  <assayResult>
5.3

$$$$

The following compounds each have a reported value; give each one's SEV (%).
1. O=C(O)c1cc(O)c(O)c(O)c1 [3,4,5-tryhydroxybenzoic acid (3,4,5-THB), 3,4,5-tryhydroxybenzoic acid]
2. O=C(O)c1ccccc1O [2-hydroxybenzoic acid (2-HB), 2-hydroxybenzoic acid]

5.1
5.6

Parameters: items (list). Returns: SEV (%) for each item.
1. O=C(O)c1ccc(O)cc1 [4-hydroxybenzoic acid (4-HB), 4-hydroxybenzoic acid]
2. O=C(O)c1cccc(O)c1O [2,3-dihydroxybenzoic acid (2,3-DHB), 2,3-dihydroxybenzoic acid]

1: 5.2; 2: 6.3

Origin of values: patent US20110052776A1
